Recorded values, source paper PMC7819943.

target-under-test: OsWOX13 (Oryza sativa, UniProt Q5QMM3 1-267)
Sequence: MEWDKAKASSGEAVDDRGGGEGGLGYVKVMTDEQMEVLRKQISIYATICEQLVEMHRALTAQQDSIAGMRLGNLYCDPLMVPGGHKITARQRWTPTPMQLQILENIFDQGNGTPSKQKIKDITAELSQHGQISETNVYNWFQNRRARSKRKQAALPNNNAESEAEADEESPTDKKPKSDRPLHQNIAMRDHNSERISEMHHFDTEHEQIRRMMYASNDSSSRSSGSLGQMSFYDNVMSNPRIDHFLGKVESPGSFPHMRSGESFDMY
procedure-summary: protein-binding microarray (RPBM); PBS, 2% BSA, 51.3 ng/ul salmon testes DNA, 50 uM zinc acetate, 200 nM TF, 25 C, 1 h; high values mean tight binding
test-parameters: protein: recombinant; tags: N-terminal polyhistidine and DsRed monomer fusion (pET32a); label: CyDye5-dUTP incorporated in the synthesized complementary strand; 3' TTTTT single-stranded linker to array surface; dsDNA, one strand shown
Over roughly 35,000 sequences, “fluorescence intensity (a.u.)” has its median near 10,000; the highest 2% begin near 52,000. Many of the other results were omitted from the sample, so the highest values are more common in it than they were.
measured-parameter: binding signal

Use the examples below as a reference point.
>  <chain>
CATCCAAATTGGCAAAGGCCGCCTCTTTCTTTAATTAACCCGGAGTCACCTAGTGCAG

>  <target-under-test>
OsWOX13 (Oryza sativa, UniProt Q5QMM3 1-267)

>  <measured-parameter>
binding signal

>  <result>
14100 fluorescence intensity (a.u.)

$$$$
>  <chain>
ATCCAATCATACTCCAAGATCTGAAGAGAAGGAGGGATTGCGGAGTCACCTAGTGCAG

>  <target-under-test>
OsWOX13 (Oryza sativa, UniProt Q5QMM3 1-267)

>  <measured-parameter>
binding signal

>  <result>
11900 fluorescence intensity (a.u.)

$$$$

Ask: Give the measured binding signal for "TCTAAATTAATCTTTAGTTCTTGACCGCAAAATATGAAGCCGGAGTCACCTAGTGCAG"
Result: 14800 fluorescence intensity (a.u.)
